Test system: SF-295 CNS
Assay: NCI-60 one-dose screen, 48 h (100 = growth as untreated, 0 = no growth, -100 = all killed)
Conditions: 10 µM unless noted
The panel holds about 83,000 compounds, 20% with a hit somewhere; the sample as a whole holds those more often.
value type: growth (%)
Dear colleague, please return just the value in %, with no unit written.

# molecule, value type, assay value
data = [
    ("O=C1NC(=S)S/C1=C\\c1cccc([N+](=O)[O-])c1", "growth", 91.3),
    ("O=C1CC2c3cc(-c4cc5ccccc5o4)ccc3CCN2C(=O)N1c1ccccc1 (stereo not drawn)", "growth", 90),
]

Query: I would be grateful if you could share the reported growth for NC(=O)c1cc(I)ccc1NC(=O)COc1ccc(Cl)cc1Cl .
Response: 90.2

* * *

System: PC-3 prostate
Assay: NCI-60 one-dose screen, 48 h (100 = growth as untreated, 0 = no growth, -100 = all killed)
Conditions: 10 µM unless noted
Compounds without any hit were thinned out: in the full panel of roughly 83,000, 20% have a hit. Activity calls are given as the source filed them. The calls were made as follows: active = growth percent below 10; inactive = the rest.
Entries and their measured growth follow.

Reference set, count: 2
# molecule, tested on, growth
rows = [
    ("CC(C)NCC(O)COc1ccc(CCOCC2CC2)cc1 (stereo not drawn)", "PC-3 prostate", "80% (inactive)"),
    ("O=S(=O)(/N=C1C=C/C(=N\\S(=O)(=O)c2ccccc2)c2ccccc2\\1)c1ccccc1", "PC-3 prostate", "79.6% (inactive)"),
]

Consider now this further molecule.
Query: For NC(=S)N/N=C1\c2ccccc2-c2c(F)c(F)c(F)c(F)c21 , what is its reported growth?
Response: 80.3% (inactive)

* * *

Test system: OVCAR-3 ovarian
Assay: NCI-60 one-dose screen, 48 h (100 = growth as untreated, 0 = no growth, -100 = all killed)
Details: 10 µM unless noted
Method: Growth inhibition of the OVCAR-3 human tumor cell line is measured as a screen for anti-cancer activity. Cells are grown in 96 well plates and exposed to the test compound for 48 hours. Compounds are tested at a single concentration, which is 10^-5 M for most compounds. The reported endpoint is percent growth (GI% or GIPRCNT), where numbers from 0 - 100% represent growth inhibition, and numbers from -100% - 0 represent cell death. For example, a value of 40 represents 60% growth inhibition. […]
Compounds without any hit were thinned out: in the full panel of roughly 83,000, 20% have a hit. Calls of active or inactive are those of the source. The calls were made as follows: active = growth percent below 10; inactive = the rest.
value type: growth

Sample answers from the record:
# molecule, growth
data = [
    ("COc1ccc(OC2=C(C#N)C(=N)N3c4ccccc4Sc4ccccc4C3N2)cc1 (stereo unspecified)", "92.1% (inactive)"),
    ("N#C/C(=C\\c1ccc[nH]1)c1cc2ccccc2[nH]1", "81.1% (inactive)"),
    ("COc1cc(C2CC(=O)Nc3c2ccc2ccccc32)cc(Br)c1OC (stereo unspecified)", "-26.3% (active)"),
]

Query: Form field: growth recorded for Cc1c(C(=O)Nc2nc(-c3ccccc3)cs2)nnn1-c1ccccc1Br with OVCAR-3 ovarian (enter value)
Response: 57.3% [50 µM] (inactive)

Query: Value wanted: growth (OVCAR-3 ovarian) of entry O=c1nc(NO)[nH]c(=O)n1Cc1ccc(F)cc1
Response: 112% (inactive)

Query: Missing value: growth, OVCAR-3 ovarian, entry Brc1ccc(SCN(CSc2ccc(Br)cc2)Cc2ccccc2)cc1 . Fill in?
Response: 91.6% (inactive)
